RUN CONDITIONS: in isobutanol, 252.65 K
OUTCOME MEASURE: solubility (mole fraction)
One number for each entry.

Query string: Name the recorded solubility (mole fraction) of the molecule listed here: COC(=O)C(C)(C)N=NC(C)(C)C(=O)OC
Result string: 0.0055

---

RUN CONDITIONS: in dichloromethane, 264.45 K
OUTCOME MEASURE: solubility (mole fraction)
Numbers only.

Query string: Name the recorded solubility (mole fraction) of the molecule listed here: COC(=O)C(C)(C)N=NC(C)(C)C(=O)OC
Result string: 0.321

---

RUN CONDITIONS: in isopropanol, 273.35 K
OUTCOME MEASURE: solubility (mole fraction)
Give bare numbers.

Query string: Name the recorded solubility (mole fraction) of the compound listed here: COC(=O)C(C)(C)N=NC(C)(C)C(=O)OC
Result string: 0.0484
